- Test Protocol: Selectivity index, ratio of IC50 for human HeLa cells to MIC for metronidazole resistant Trichomonas vaginalis ATCC 50143
- Assay type: toxicity, cell-based
- Details: read-out: Selectivity Index
The label YES is reserved for selectivity ratio strictly under 9; NO covers values equal to or above it.

Molecule: Cc1ncc([N+](=O)[O-])n1CC(O)CN1CCC(C)CC1 (racemic)
Answer Label: NO
//
Molecule: Cc1ncc([N+](=O)[O-])n1CC(O)Cn1cnc2ccccc21 (racemic)
Answer Label: NO
//
Molecule: Cc1ncc([N+](=O)[O-])n1CC(O)CN1CCC(Cc2ccccc2)CC1 (racemic)
Answer Label: NO
//
Molecule: CCOC(=O)N1CCN(CC(O)Cn2c([N+](=O)[O-])cnc2C)CC1 (racemic)
Answer Label: NO
//
Molecule: COc1ccccc1N1CCN(C(=S)SCC(O)Cn2c([N+](=O)[O-])cnc2C)CC1 (racemic)
Answer Label: NO

INPUT: # strict comparison: is reported selectivity ratio < 9? input = CCCCN1CCN(C(=S)SCC(O)Cn2c([N+](=O)[O-])cnc2C)CC1 (racemic)
OUTPUT: NO

* * *

- Test Protocol: Selectivity index, ratio of IC50 for human HeLa cells to MIC for metronidazole resistant Trichomonas vaginalis ATCC 50143
- Assay type: toxicity, cell-based
- Details: read-out: Selectivity Index
Listed here are compounds together with their documented selectivity ratio.
Format: numeric value only, no unit, no commentary.

Compound: CCN1CCN(CC(O)Cn2c([N+](=O)[O-])cnc2C)CC1 (racemic)
selectivity ratio: 47
//
Compound: Cc1ncc([N+](=O)[O-])n1CC(O)CN1CCN(c2ccco2)CC1 (racemic)
selectivity ratio: 20

API: the following record is the query input.
INPUT: What measured selectivity ratio goes with CCN(C)C(=S)SCC(O)Cn1c([N+](=O)[O-])cnc1C (stereo not given) ?
OUTPUT: 10

* * *

- Test Protocol: Cmax in Sprague Dawley rat at 50 mg/kg, po
- Type: ADME, organism-based
- Design: dose 50 mg/kg, route oral
- Details: in vivo
Parameter Measured: Cmax (ng/mL)
Report as a plain number; the unit ng/mL is understood.

INPUT: What measured Cmax goes with Cc1ncc([N+](=O)[O-])n1CC(O)CSC(=S)N1CCN(c2ccccc2)CC1 (racemic) ?
OUTPUT: 35.2

* * *

- Test Protocol: Selectivity index, ratio of IC50 for human HeLa cells to MIC for metronidazole resistant Trichomonas vaginalis ATCC 50143
- Assay type: toxicity, cell-based
- Details: read-out: Selectivity Index
The label yes is reserved for selectivity ratio strictly under 30; no covers values equal to or above it.

Use these answered entries as a reference point.
Compound: COc1ccccc1N1CCN(CC(O)Cn2c([N+](=O)[O-])cnc2C)CC1 (racemic)
Answer Label: no

Compound: Cc1ncc([N+](=O)[O-])n1CC(O)CSC(=S)N1CCN(c2ncccn2)CC1 (racemic)
Answer Label: no

Compound: Cc1ncc([N+](=O)[O-])n1CC(O)CSC(=S)N1CCOCC1 (racemic)
Answer Label: no

INPUT: # strict comparison: is reported selectivity ratio < 30? input = Cc1ncc([N+](=O)[O-])n1CC(O)CSC(=S)N1CCN(c2ccccn2)CC1 (racemic)
OUTPUT: yes

INPUT: # strict comparison: is reported selectivity ratio < 30? input = Cc1ncc([N+](=O)[O-])n1CC(O)CN1CCN(c2ccccn2)CC1 (racemic)
OUTPUT: yes

INPUT: # strict comparison: is reported selectivity ratio < 30? input = Cc1nc([N+](=O)[O-])cn1CC(O)CN1CCN(c2cccc(Cl)c2Cl)CC1 (racemic)
OUTPUT: yes

INPUT: # strict comparison: is reported selectivity ratio < 30? input = Cc1nc([N+](=O)[O-])cn1CC(O)CSC(=S)N1CCN(c2cccc(Cl)c2)CC1 (racemic)
OUTPUT: yes

INPUT: # strict comparison: is reported selectivity ratio < 30? input = Cc1ncc([N+](=O)[O-])n1CC(O)CN1C(C)CCCC1C (racemic)
OUTPUT: no

INPUT: # strict comparison: is reported selectivity ratio < 30? input = Cc1ncc([N+](=O)[O-])n1CC(O)CN1CCN(c2ncccn2)CC1 (racemic)
OUTPUT: no

* * *

- System: Trichomonas vaginalis
- Test Protocol: Antiparasitic activity against metronidazole resistant Trichomonas vaginalis ATCC 50143 after 48 hrs by trypan blue exclusion assay
- Type: functional
- Details: ATCC 50143, 48 h
Class definitions on MIC: low group: < 200 µM; middle group: ≥ 200 µM and < 400 µM; high group: ≥ 400 µM

Use these answered entries as a reference point.
Molecule: Cc1ncc([N+](=O)[O-])n1CC(O)CN1CCCC(C)C1 (racemic)
Assayed Target: Trichomonas vaginalis
Answer Label: low group

Molecule: Cc1nc([N+](=O)[O-])cn1CC(O)CSC(=S)N1CCN(c2ccccc2)CC1 (racemic)
Assayed Target: Trichomonas vaginalis
Answer Label: middle group

Molecule: Cc1ncc([N+](=O)[O-])n1CC(O)Cn1nccn1 (racemic)
Assayed Target: Trichomonas vaginalis
Answer Label: low group

Molecule: Cc1ncc([N+](=O)[O-])n1CC(O)CN1CCN(c2cccc(Cl)c2Cl)CC1 (racemic)
Assayed Target: Trichomonas vaginalis
Answer Label: low group

Molecule: Cc1nc([N+](=O)[O-])cn1CC(O)CN1CCN(c2ccccn2)CC1 (racemic)
Assayed Target: Trichomonas vaginalis
Answer Label: high group

# input for lookup
INPUT: Lab log: Cc1ncc([N+](=O)[O-])n1CC(O)CN1CCCCC1C (racemic) — assign MIC category
OUTPUT: high group

* * *

Listed here are compounds together with their documented selectivity ratio.
- Test Protocol: Selectivity index, ratio of IC50 for human HeLa cells to MIC for metronidazole sensitive Trichomonas vaginalis ATCC 33592
- Assay type: toxicity, cell-based
- Details: read-out: Selectivity Index
Format: numeric value only, no unit, no commentary.

Compound: Cc1ncc([N+](=O)[O-])n1CC(O)CSC(=S)N1CCCCCC1 (racemic)
selectivity ratio: 11

Compound: COc1ccccc1N1CCN(CC(O)Cn2c([N+](=O)[O-])cnc2C)CC1 (racemic)
selectivity ratio: 131

Compound: Cc1nc([N+](=O)[O-])cn1CC(O)Cn1c([N+](=O)[O-])cnc1C (racemic)
selectivity ratio: 86

Compound: CCCCN1CCN(C(=S)SCC(O)Cn2c([N+](=O)[O-])cnc2C)CC1 (racemic)
selectivity ratio: 122

Compound: Cc1ncc([N+](=O)[O-])n1CC(O)CSC(=S)N1CCN(c2ncccn2)CC1 (racemic)
selectivity ratio: 69

Compound: Cc1ncc([N+](=O)[O-])n1CC(O)CSC(=S)N1CCN(c2ccccc2F)CC1 (racemic)
selectivity ratio: 227

INPUT: What measured selectivity ratio goes with CCOC(=O)N1CCN(CC(O)Cn2c([N+](=O)[O-])cnc2C)CC1 (racemic) ?
OUTPUT: 160

* * *

- Test Protocol: Half life in Sprague Dawley rat at 50 mg/kg, po
- Format: ADME, organism-based
- Details: in vivo
Parameter Measured: half-life (h)
Report as a plain number; the unit h is understood.

INPUT: What measured half-life goes with Cc1ncc([N+](=O)[O-])n1CC(O)CSC(=S)N1CCN(c2ccccc2)CC1 (racemic) ?
OUTPUT: 5

* * *

- System: Trichomonas vaginalis
- Test Protocol: Antiparasitic activity against metronidazole resistant Trichomonas vaginalis ATCC 50143 after 48 hrs by trypan blue exclusion assay
- Type: functional
- Details: ATCC 50143, 48 h
Parameter Measured: MIC (µM)
Report as a plain number; the unit µM is understood.

Completed entries (count: 3):
Molecule: Cc1ncc([N+](=O)[O-])n1CC(O)CSC(=S)N1CCOCC1 (racemic)
Uom: µM
MIC: 144

Molecule: Cc1ncc([N+](=O)[O-])n1CC(O)CN1CCC(C)CC1 (racemic)
Uom: µM
MIC: 177

Molecule: Cc1ncc([N+](=O)[O-])n1CC(O)CN1CCN(c2ccccc2)CC1 (racemic)
Uom: µM
MIC: 181

INPUT: Give recorded MIC with Trichomonas vaginalis for the following molecule: CCN1CCN(CC(O)Cn2c([N+](=O)[O-])cnc2C)CC1 (racemic)
OUTPUT: 105

* * *

- Test Protocol: Selectivity index, ratio of IC50 for human HeLa cells to MIC for metronidazole resistant Trichomonas vaginalis ATCC 50143
- Type: toxicity, cell-based
- Details: read-out: Selectivity Index
Listed here are compounds together with their documented selectivity ratio.

Completed entries (count: 6):
Compound: Cc1ncc([N+](=O)[O-])n1CC(O)Cn1nnc2ccccc21 (racemic)
Parameter Measured: selectivity ratio
Value: 103
//
Compound: Cc1ncc([N+](=O)[O-])n1CC(O)CSC(=S)N1CCN(C(=O)OC(C)(C)C)CC1 (racemic)
Parameter Measured: selectivity ratio
Value: 9
//
Compound: Cc1ncc([N+](=O)[O-])n1CC(O)Cn1cncn1 (racemic)
Parameter Measured: selectivity ratio
Value: 50
//
Compound: Cc1ncc([N+](=O)[O-])n1CC(O)CN1CCOCC1 (racemic) [MORINIDAZOLE]
Parameter Measured: selectivity ratio
Value: > 54
//
Compound: Cc1ncc([N+](=O)[O-])n1CC(O)CSC(=S)N1CCC(Cc2ccccc2)CC1 (racemic)
Parameter Measured: selectivity ratio
Value: 45
//
Compound: Cc1nc([N+](=O)[O-])cn1CC(O)CSC(=S)N1CCN(c2ccccc2)CC1 (racemic)
Parameter Measured: selectivity ratio
Value: > 16

INPUT: What measured selectivity ratio goes with Cc1nc([N+](=O)[O-])cn1CC(O)CN1CCN(c2ccccn2)CC1 (racemic) ?
OUTPUT: > 3

INPUT: What measured selectivity ratio goes with CCN(CC)C(=S)SCC(O)Cn1c([N+](=O)[O-])cnc1C (racemic) ?
OUTPUT: 32

INPUT: What measured selectivity ratio goes with Cc1ncc([N+](=O)[O-])n1CC(O)CSC(=S)N1CCC(C)CC1 (racemic) ?
OUTPUT: 26
